# Test system: Malme-3M
# METHOD: NCI tumour cell line growth inhibition, 48 h
Calls of active or inactive are those of the source. Cut-off read from the data, not from the text of the source: active = GI50 up to about 1.1 µM and inactive = higher.
OBSERVABLE: GI50

Below, 3 compounds whose answers are already recorded.
Exercise: Identify measured GI50 associated with "CC(C)(C)c1cc(C(P(=O)(O)O)P(=O)(O)O)cc(C(C)(C)C)c1O"
Solution: > 10 µM (inactive)

Exercise: Identify measured GI50 associated with "C1CSCCSCCCSCCSCCCSCCSCCCSCCSC1"
Solution: > 100 µM (inactive)

Exercise: Identify measured GI50 associated with CC(=O)O[C@]12CCCCC1C1(O)C(O)CCCC[C@H]12 (some centres undefined)
Solution: > 100 µM (inactive)

Others:
Exercise: Identify measured GI50 associated with "COc1ccc(/C=c2/s/c(=C(\C#N)c3nc4ccccc4[nH]3)n(-c3ccccc3)c2=O)cc1"
Solution: > 42.4 µM (inactive)

Exercise: Identify measured GI50 associated with "O=C(NCCNCCO)N/N=C/c1cccc([N+](=O)[O-])c1"
Solution: > 100 µM (inactive)

Exercise: Identify measured GI50 associated with C=CC1(C)CCC(C(C)C(=O)C(C=C(C)C)OC(C)=O)C12C(=O)Oc1ccccc1C2=O (centres undefined)
Solution: 48.5 µM (inactive)

Exercise: Identify measured GI50 associated with "Nc1n[nH]c2c(C(=O)Nc3ccc(Cl)cc3)c(N)n(N)c(=O)c12"
Solution: > 100 µM (inactive)

Exercise: Identify measured GI50 associated with "CNC(=O)[C@H](Cc1ccccc1)NC(=O)N(CCC#N)CCN(C(=O)N[C@@H](Cc1ccccc1)C(=O)OC)c1ccccc1"
Solution: > 100 µM (inactive)

Exercise: Identify measured GI50 associated with "CN(C)c1ccc(/C=C/c2ccnc3ccc4ccccc4c23)cc1"
Solution: 25.3 µM (inactive)

Exercise: Identify measured GI50 associated with CC(CO)(CO)N1C(=O)C2C3C=CC(C3)C2C1=O (centres undefined)
Solution: > 100 µM (inactive)

Exercise: Identify measured GI50 associated with COC(=O)c1c(O)ccc2c1C1(Cc3ccccc3C1=O)C(O)O2 (centres undefined)
Solution: 21.7 µM (inactive)

Exercise: Identify measured GI50 associated with "Cc1n[nH]c(=O)n1/N=C\CC/C=N\n1c(C)n[nH]c1=O"
Solution: > 100 µM (inactive)

Exercise: Identify measured GI50 associated with CC(SC1=CC(=O)c2c(O)ccc(O)c2C1=O)C(=O)O (centres undefined)
Solution: > 44.5 µM (inactive)

Exercise: Identify measured GI50 associated with "CCCn1cnc2c(SCC(=O)O)nc(N)nc21"
Solution: > 100 µM (inactive)

Exercise: Identify measured GI50 associated with "Oc1cc(Cl)cc2cc(Br)cnc12"
Solution: 2.23 µM (inactive)

Exercise: Identify measured GI50 associated with CC(ON1[C@](C)(c2ccccc2)CC[C@@]1(C)c1ccccc1)c1ccccc1 (some centres undefined)
Solution: 32.5 µM (inactive)

Exercise: Identify measured GI50 associated with CC(=O)NC(CCCNC(=O)N(C)N=O)C(=O)NCc1ccccc1 (centres undefined)
Solution: > 100 µM (inactive)

Exercise: Identify measured GI50 associated with "COC(=O)/C=c1\s/c(=C\C(=O)OC)c2ccccc12"
Solution: > 100 µM (inactive)

----------
# Tested on: KM12
# METHOD: NCI tumour cell line growth inhibition, 48 h
Calls of active or inactive are those of the source. Cut-off read from the data, not from the text of the source: active = GI50 up to about 1.1 µM and inactive = higher.
Here the recorded GI50 is given for each entry.

Below, 2 compounds whose answers are already recorded.
Exercise: Identify measured GI50 associated with "N#Cc1ccccc1C(Cl)(Cl)c1cnccn1"
Solution: 37.8 µM (inactive)

Exercise: Identify measured GI50 associated with "O=C(CCCCCCCCC(=O)N1C(=O)CC(=O)N(c2ccc(Cl)cc2)C1=S)N1C(=O)CC(=O)N(c2ccc(Cl)cc2)C1=S"
Solution: 27.4 µM (inactive)

Others:
Exercise: Identify measured GI50 associated with "Cc1ccccc1-c1c(N)nc(NC#N)nc1C(=O)Nc1ccccc1"
Solution: > 100 µM (inactive)

Exercise: Identify measured GI50 associated with CCC1CCC2c3c([nH]c4ccccc34)C3C(=O)N(c4ccc(OC)cc4)C(=O)C3C2C1 (stereo unspecified)
Solution: 93.5 µM (inactive)

Exercise: Identify measured GI50 associated with CC(=O)OC12C=CC(=O)N1c1ccccc1C(=O)O2 (stereo unspecified)
Solution: > 100 µM (inactive)

Exercise: Identify measured GI50 associated with "Cc1cc(N(CCC#N)CCC#N)ccc1/N=N/c1cc(Cl)ccc1Cl"
Solution: 15.2 µM (inactive)

Exercise: Identify measured GI50 associated with "NC(=O)c1oc([N+](=O)[O-])c(-c2ccccc2)c1-c1ccccc1"
Solution: 13.6 µM (inactive)

Exercise: Identify measured GI50 associated with "CC(C)=CCc1c(O)c(CC=C(C)C)c2oc(-c3ccc(O)cc3O)c(CC=C(C)C)c(=O)c2c1O"
Solution: 5.57 µM (inactive)

Exercise: Identify measured GI50 associated with "C=CNC(=O)NC(=O)CSc1nc(=O)c(-c2ccccc2NC(=O)C(F)(F)F)n[nH]1"
Solution: > 100 µM (inactive)

Exercise: Identify measured GI50 associated with CCOC(=O)C1C2CCC1CC(=NNc1ccc([N+](=O)[O-])cc1[N+](=O)[O-])C2 (stereo unspecified)
Solution: 48.9 µM (inactive)

Exercise: Identify measured GI50 associated with "CC(=O)C(=CNc1c(C)n(C)n(-c2ccccc2)c1=O)C(C)=O"
Solution: > 100 µM (inactive)

Exercise: Identify measured GI50 associated with "C#C[C@H](CCCC)OC(=O)N[C@H](C)c1ccccc1"
Solution: 51.3 µM (inactive)

Exercise: Identify measured GI50 associated with "CCOC(=O)/C(=C/c1ccc(N(C)C)cc1)N(CC)CC"
Solution: 79.8 µM (inactive)

Exercise: Identify measured GI50 associated with CC1(C)C2CCC1(C)[C@H](O)[C@H]2Nc1cc(C(F)(F)F)cc(C(F)(F)F)c1 (stereo partly specified)
Solution: 2.88 µM (inactive)
